system: Enterovirus; assay: Antiviral activity against Rhinovirus; format: functional, organism-based
pEC50: −log10 of the molar value.
measure: pEC50

Lookup: Return reported pEC50 for target or system Enterovirus, item "COc1ccc2c(c1)[C@@H]1C[C@]1(C(=O)N1[C@@H]3CC[C@H]1CN(C)C3)Cn1c-2c(C2CCCCC2)c2ccc(C(=O)NS(=O)(=O)N(C)C)cc21" .
Found: < 4.85

* * *

experiment: Cytotoxicity against human HuH7 cells by Alamar blue assay; type: cell-based; settings: Huh-7 cells
The entries below are paired with their reported CC50.

Some entries whose results are on file:
>>> result("COc1ccc2c(c1)C1CC1(C(=O)N1CC3CCC(C1)N3C)Cn1c-2c(C2CCCCC2)c2ccc(C(=O)NS(=O)(=O)N(C)C)cc21 (racemic)")
"> 16 µM"
>>> result("CN(C)S(=O)(=O)NC(=O)c1ccc2c(C3CCCCC3)c3n(c2c1)CC(C(=O)N1CCOCC1)=Cc1ccccc1-3")
"> 10 µM"
>>> result("COc1ccc2c(c1)C1CC1(C(=O)N1CC(O)(C(C)C)C1)Cn1c-2c(C2CCCCC2)c2ccc(C(=O)NS(=O)(=O)N(C)C)cc21 (racemic)")
"6.5 µM"
>>> result("COc1ccc2c(c1)C1CC1(C(=O)N1C[C@@H](C)N(C(C)=O)[C@@H](C)C1)Cn1c-2c(C2CCCCC2)c2ccc(C(=O)NS(=O)(=O)N(C)C)cc21 (mixture of isomers)")
"> 10 µM"
>>> result("COc1ccc2c(c1)[C@@H]1C[C@]1(C(=O)N1[C@@H]3CC[C@H]1CN(C)C3)Cn1c-2c(C2CCCCC2)c2ccc(C(=O)NS(=O)(=O)N(C)C)cc21 [BECLABUVIR]")
"> 10 µM"

Below: the item to evaluate.
Lookup: Please indicate CC50 recorded for COc1ccc2c(c1)C1CC1(C(=O)N1C[C@@H](C)O[C@@H](C)C1)Cn1c-2c(C2CCCCC2)c2ccc(C(=O)NS(=O)(=O)N(C)C)cc21 (mixture of isomers)
Found: 9 µM
